The values you see were collected from ChEMBL document CHEMBL1240353.

experiment: Inhibition of PBP1 in penicillin-resistant Enterococcus faecium D63r membranes assessed as inhibition of fluorescent ampicillin binding after 20 mins at 37 degC
measureName: IC50 (µg/mL)
// note: answer is a bare numeric in µg/mL

Sample answers from the record:
{"smilesRepresentation": "CO/N=C(\\C(=O)N[C@@H]1C(=O)N2C(C(=O)[O-])=C(C[N+]3(C)CCCC3)CS[C@H]12)c1csc(N)n1", "IC50 [µg/mL]": 1.7}
{"smilesRepresentation": "Nc1nc(/C(=N/O)C(=O)N[C@@H]2C(=O)N3C(C(=O)O)=C(/C=C4\\CCN([C@@H]5CCNC5)C4=O)CS[C@H]23)ns1", "IC50 [µg/mL]": 0.7}
{"smilesRepresentation": "CC1(C)S[C@@H]2[C@H](NC(=O)Cc3ccccc3)C(=O)N2[C@H]1C(=O)O", "IC50 [µg/mL]": 1.6}

Okay, now this molecule:
Recorded result, CC(C)(O/N=C(\C(=O)N[C@@H]1C(=O)N2C(C(=O)[O-])=C(C[n+]3ccccc3)CS[C@H]12)c1csc(N)n1)C(=O)O , IC50: 0.9
